molecular target: AsPC-1 HiBiT-KRASG12D (Homo sapiens, UniProt P01116, G12D); construct: insert the HiBiT tag onto the N-terminus of one or more of the endogenous KRAS alleles; endogenous in cells; host or cells: AsPC-1 (ATCC CRL-1682), CRISPR-Cas9 knock-in clone, one tagged allele; test: HiBiT degradation assay (G12D), AsPC-1 HiBiT-KRASG12D cells; assay type: cell-based; details: ASPC1, AsPC-1 HiBiT-KRASG12D cells, 24 hours treatment, maximum degradation observed
Sequence (P01116 1-188 isoform P01116-2 G12D): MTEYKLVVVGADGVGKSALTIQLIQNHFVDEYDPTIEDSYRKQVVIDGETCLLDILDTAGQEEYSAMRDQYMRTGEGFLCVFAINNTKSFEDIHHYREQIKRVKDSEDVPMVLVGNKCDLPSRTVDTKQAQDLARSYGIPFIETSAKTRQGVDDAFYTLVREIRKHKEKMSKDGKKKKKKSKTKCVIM
Please provide measured Dmax for the entries that follow.

Ask | # get_value(readout= Dmax, system= AsPC-1 HiBiT-KRASG12D (Homo sapiens, UniProt P01116, G12D)) for CCc1cccc2cc(O)cc(-c3ncc4c(N5CC6CCC(C5)N6)nc(OCCN5CCC(CN6CC(Oc7cc([C@H](C(=O)N8C[C@H](O)C[C@H]8C(=O)N[C@@H](C)c8ccc(-c9scnc9C)cc8)C(C)C)on7)C6)CC5)nc4c3F)c12 [Compound 244]
Reply | 80 to 100%

Ask | # get_value(readout= Dmax, system= AsPC-1 HiBiT-KRASG12D (Homo sapiens, UniProt P01116, G12D)) for CCc1cccc2cc(O)cc(-c3ncc4c(N5CC6CCC(C5)N6)nc(OC[C@]56CCCN5C[C@H](Oc5cc([C@@H](C(=O)N7C[C@H](O)C[C@H]7C(=O)N[C@@H](C)c7ccc(-c8scnc8C)cc7)C(C)C)on5)CC6)nc4c3F)c12 [Compound 319]
Reply | 60 to 80%

Ask | # get_value(readout= Dmax, system= AsPC-1 HiBiT-KRASG12D (Homo sapiens, UniProt P01116, G12D)) for CCc1cccc2cc(O)cc(-c3ncc4c(N5CC6CCC(C5)N6)nc(OCCN5C[C@@H]6CN(c7cc(C(C(=O)N8C[C@H](O)C[C@H]8C(=O)N[C@@H](C)c8ccc(-c9scnc9C)cc8)C(C)C)on7)C[C@@H]6C5)nc4c3F)c12 (single isomer, unassigned) [Compound 79]
Reply | 80 to 100%

Ask | # get_value(readout= Dmax, system= AsPC-1 HiBiT-KRASG12D (Homo sapiens, UniProt P01116, G12D)) for C#Cc1c(F)ccc2cc(O)cc(-c3ncc4c(N5CC6CCC(C5)N6)nc(OCCN5CCC(C)(COc6cc([C@H](C(=O)N7C[C@H](O)C[C@H]7C(=O)N[C@@H](C)c7ccc(-c8scnc8C)cc7)C(C)C)on6)CC5)nc4c3F)c12 [Compound 313]
Reply | 80 to 100%
